# assay method text: ARIADME phase I pharmacokinetics/bioavailability study
# Assay type: in vivo, human
# condition description: male, human, plasma, po, 300 mg, AUC0–tlast, single 300 mg oral 14C-solution, fasted; geometric mean (CV%)
observable: AUC(0-t)

| compound | test value |
| --- | --- |
| CC(O)c1cc(C(=O)N[C@@H](C)Cn2ccc(-c3ccc(C#N)c(Cl)c3)n2)[nH]n1 (stereo partly shown) [Darolutamide] | 45300 ng·h/mL |

----------
# assay method text: ARIADME phase I pharmacokinetics/bioavailability study
# Format: in vivo, human
# condition description: male, human, plasma, iv, 100 µg, t½, 100 µg IV 14C-microtracer, 15-min infusion; geometric mean (CV%)
observable: half-life (h)

| molecule | observable | test value |
| --- | --- | --- |
| CC(O)c1cc(C(=O)N[C@@H](C)Cn2ccc(-c3ccc(C#N)c(Cl)c3)n2)[nH]n1 (stereo partly shown) [Darolutamide] | half-life | 11.8 |
